Cited source for all entries: patent US20130210817A1

Reported LC50 with 95% confidence limit (ppm) susceptible strain values follow for various molecules
- Tested on: neonicotinoid insecticide susceptible strain 4106A
- Assay type: in vivo
- EXPERIMENTAL_CONTEXT: mixed age aphids on chinese cabbage leaf discs, Potter Tower spray, mortality 72 hours after treatment; susceptible strain 4106A (Rothamsted Research)
OBSERVABLE: LC50 with 95% confidence limit (ppm) susceptible strain

> print(dat)
                                   molecule        recorded.value
1  CN/C(=N/CC1CCOC1)N[N+](=O)[O-] (stereo not shown)  9.95 (8.21-12.5) ppm
2        CN/C(=N\[N+](=O)[O-])NCc1cnc(Cl)s1  0.33 (0.28-0.38) ppm
3              C/C(=N\C#N)N(C)Cc1ccc(Cl)nc1  0.55 (0.51-0.59) ppm
4   CCN(Cc1ccc(Cl)nc1)/C(=C/[N+](=O)[O-])NC  1.26 (1.03-1.61) ppm
5               N#C/N=C1\SCCN1Cc1ccc(Cl)nc1  0.38 (0.34-0.42) ppm
6  CC(=O)N1C(=O)N(NCc2cccnc2)Cc2cc(C(F)(C(F)(F)F)C(F)(F)F)ccc21  0.17 (0.13-0.22) ppm
7   CN1COCN(Cc2cnc(Cl)s2)/C1=N\[N+](=O)[O-]   0.35 (0.3-0.41) ppm
